Ref: ChEMBL document CHEMBL3988442

Please respond with reported Percent Effect for every item in the list.
- System: Trypanosoma brucei
- method.description: Trypanosoma brucei 72 hour study
- Format: functional, organism-based
- Parameters: scale not given: in the data most compounds retested in dose-response had high values
- condition.parameters: 30 µM; 30.03 µM
The campaign covered roughly 66,000 compounds. About 960 (1.5%) showed an effect of 50% or more. The sample as a whole holds a higher share of strong results than the screen did.
Answers are plain numbers, in %.

* Cn1ccc(C(=O)NC2CCC23CCN(CC2CCOCC2)CC3)c1.O=C(O)C(F)(F)F (configuration not stated) | -17.43
* CCC[C@H]1CN(S(=O)(=O)N(C)Cc2ccccc2)C[C@@H]1N | 8.364
* NC(=O)NC(=O)CCN(Cc1ccccc1)CC1CCOCC1 | -38.3
* CN(CCN1CCOCC1)C(=O)CCc1cccc(Cl)c1 | 2.26
* Cc1csc(CN2CCC[C@]3(C[C@@H](OCC4CC4)CO3)C2)n1.O=C(O)C(F)(F)F | -17.53
* Cn1ccc2c(C(=O)N3CCC(C(N)=O)CC3)cccc21 | 51.42
* O=C(O)C(F)(F)F.c1ccc(N2CCCC3(COCCN(c4nccs4)C3)C2)nc1 (configuration not stated) | 23.77
* Cc1cc(NC(=O)NCCO)nn1-c1ccc(Cl)cc1Cl | -0.9538
* COc1ncccc1C(=O)N1CC[C@H]2C[C@@H](c3nccs3)O[C@@H]2C1 | -31.44
* CC(C)CC(=O)N1CCC2(CC1)COCCN2Cc1ccc(F)cc1.O=C(O)C(F)(F)F | 17.24

Please state, for each entry, its recorded Percent Effect.
1. CN(Cc1n[nH]c2c1CCC2)c1nc(C2CCCC2)nc2c1CNC2
2. NC(=O)c1ccc(CN2C(=O)C3(CCNCC3)Nc3ccccc32)cc1
3. CN1CC2(CCN(Cc3cccc(C#N)c3)CC2)CC1=O
4. Cc1nc(C)n(CC2CCCN2CC(=O)NCCc2ccsc2)n1 (configuration not stated)

1: -1.405; 2: 8.328; 3: -2.169; 4: -16.47

Please state, for each entry, its recorded Percent Effect.
1. Cc1noc(C(C)N2CCN(CCC(=O)N3CCOCC3)CC2)n1 (configuration not stated)
2. Cc1cnn(CC2CCCCN2Cc2nc(N)c3ccccc3n2)c1 (configuration not stated)
3. Cn1ccc(C(=O)NC2CCC23CCN(Cc2cnn(C)c2)CC3)c1.O=C(O)C(F)(F)F (configuration not stated)
4. O=C(O)C(F)(F)F.OCCN1CCOC2(CCCN(c3cccc(F)c3)C2)C1 (configuration not stated)

1: -18.56; 2: 14.94; 3: -26.08; 4: 21.19

Please state, for each entry, its recorded Percent Effect.
1. Fc1cnc(N2CCCC3(COCCN(c4nccs4)C3)C2)nc1.O=C(O)C(F)(F)F.O=C(O)C(F)(F)F (configuration not stated)
2. COc1ccc(C)cc1NC(=O)Nc1cnc(N2CCCC2)nc1
3. N#Cc1cccc(CN2C(=O)C3(CCNCC3)Nc3ccccc32)c1
4. CC(C)c1ccc(CN2C(=O)C3(CCNCC3)Nc3ccccc32)cc1

[60.81, -9.808, 83.34, 101.9]
